assay: inhibitors of NFkB activation in CF airway cells, SAR follow-up, KKLEB cells, panel, IL8 HTRF, NFkB-GFP (AID 651592);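 further: immortalized cystic fibrosis airway epithelial KKLEB cells with an NF-kB GFP reporter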
condition context: PAF/TNFa-induced NFkB-GFP / IL8 HTRF, CF-PAF assay, run 3
pIC50: −log10 of the molar value.
metric: pIC50

[
  {
    "item smiles": "O=C(Nc1ccc(N2CCN(C(=O)c3ccccc3)CC2)cc1)c1cncc(Br)c1",
    "reading": 5.46
  },
  {
    "item smiles": "O=C(Nc1ccc(N2CCN(C(=O)c3ccccc3F)CC2)cc1)c1ccccn1",
    "reading": 4.19
  }
]

(a) O=C(Nc1ccc(N2CCN(C(=O)c3ccc(F)cc3)CC2)cc1)c1cccc(Br)c1
(b) O=C(Nc1ccc(N2CCN(C(=O)c3ccccc3Cl)CC2)cc1)c1cncc(Br)c1
Q. For the pair a and b , which member has the lower pIC50 number? Give the label under which the chosen entry appears.
A. a
(a: 4.65, b: 5.58)

(a) O=C(Nc1ccc(N2CCN(C(=O)c3ccccc3Cl)CC2)cc1)c1ccncc1
(b) O=C(Nc1ccc(N2CCN(C(=O)c3ccccc3F)CC2)cc1)c1cccc(Br)c1
(c) O=C(Nc1ccc(N2CCN(C(=O)c3ccccc3)CC2)cc1)c1ccncc1
(d) O=C(Nc1ccc(N2CCN(C(=O)c3ccccc3Cl)CC2)cc1)c1ccccc1
Q. Please list the entries, largest pIC50 first. List the labels in the requested order.
A. d, a, b, c
(d: 5.37, a: 5.03, b: 4.67, c: 4.32)

* * *

assay: inhibitors of NFkB activation in CF airway cells, SAR follow-up, KKLEB cells, panel, IL8 HTRF, NFkB-GFP (AID 651592);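 further: immortalized cystic fibrosis airway epithelial KKLEB cells with an NF-kB GFP reporter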
condition context: PAF/TNFa-induced NFkB-GFP / IL8 HTRF, CF-PAF assay, run 3
pIC50: −log10 of the molar value.
metric: pIC50

[
  {
    "item smiles": "O=C(Nc1ccc(N2CCN(C(=O)c3ccccc3)CC2)cc1)c1ccccc1",
    "reading": 4.37
  }
]

(1) Cc1ccc(NCc2cc3c(C(C)(C)C)nn(-c4ccccc4)c3[nH]c2=O)cc1
(2) O=C(Nc1ccc(N2CCN(C(=O)c3ccccc3F)CC2)cc1)c1ccncc1
(3) O=C(Nc1ccc(N2CCN(C(=O)c3ccc(F)cc3)CC2)cc1)c1cncc(Br)c1
(4) O=C(Nc1ccc(N2CCN(C(=O)c3ccccc3F)CC2)cc1)c1cccnc1
Q. Ascending sort, pIC50. List the labels in the requested order.
A. 1, 2, 4, 3
(1: 4.36, 2: 4.75, 4: 5.05, 3: 5.48)

* * *

// reported pIC50 for each item listed
tested on: Interleukin-8 (Homo sapiens) (UniProt P10145)
Sequence (P10145 whole entry, looked up): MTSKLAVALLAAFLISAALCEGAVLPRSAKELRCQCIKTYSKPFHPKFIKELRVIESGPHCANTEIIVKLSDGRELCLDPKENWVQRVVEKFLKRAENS
assay: inhibitors of NFkB activation in CF airway cells, SAR follow-up, KKLEB cells, panel, IL8 HTRF, NFkB-GFP (AID 651592);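 further: immortalized cystic fibrosis airway epithelial KKLEB cells with an NF-kB GFP reporter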
condition context: PAF/TNFa-induced NFkB-GFP / IL8 HTRF, IL8, PAF-induced, run 6
pIC50: −log10 of the molar value.

Record excerpt, results attached:
[
  {
    "item smiles": "O=C(Nc1ccc(N2CCN(C(=O)c3ccccc3Cl)CC2)cc1)c1cccc(Br)c1",
    "metric": "pIC50",
    "reading": "< 4.18"
  },
  {
    "item smiles": "O=C(Nc1ccc(N2CCN(C(=O)c3ccc(F)cc3)CC2)cc1)c1cccnc1",
    "metric": "pIC50",
    "reading": "< 4.18"
  },
  {
    "item smiles": "O=C(Nc1ccc(N2CCN(C(=O)c3ccccc3F)CC2)cc1)c1cc(Br)cc(Br)c1",
    "metric": "pIC50",
    "reading": "< 4.18"
  },
  {
    "item smiles": "O=C(Nc1ccc(N2CCN(C(=O)c3ccccc3F)CC2)cc1)c1ccncc1",
    "metric": "pIC50",
    "reading": "< 4.18"
  },
  {
    "item smiles": "O=C(Nc1ccc(N2CCN(C(=O)c3ccccc3Cl)CC2)cc1)c1ccccn1",
    "metric": "pIC50",
    "reading": 4.27
  },
  {
    "item smiles": "CCOc1ccc(NCc2cc3c(-c4ccc(OC)c(OC)c4)nn(-c4ccccc4)c3[nH]c2=O)cc1",
    "metric": "pIC50",
    "reading": 5.72
  }
]

Q. Identify pIC50 associated with the molecule "O=C(Nc1ccc(N2CCN(C(=O)c3ccccc3F)CC2)cc1)c1ccccn1"
A. < 4.18

Q. Identify pIC50 associated with the molecule "CCOc1ccc(NCc2cc3c(C(C)(C)C)nn(-c4ccccc4)c3[nH]c2=O)cc1"
A. 5.25

Q. Identify pIC50 associated with the molecule "CCOc1ccc(NCc2cc3c(C(C)(C)C)nn(-c4ccc(Cl)cc4)c3[nH]c2=O)cc1"
A. 6.61

Q. Identify pIC50 associated with the molecule "CCOc1ccc(NCc2cc3c(C)nn(-c4ccccc4)c3[nH]c2=O)cc1"
A. 5.07
